- Tested on: HeLa
- Test name: Cytotoxicity against human HeLa cells assessed as cell viability incubated for 72 hrs by MTT assay
Property name: pIC50
Entry type: numeric. Quantity: pIC50, the -log10 of concentration in molar units.

Request - read-out pIC50 | tested on HeLa | compound CCCCNC(=O)C(c1c[nH]c(=O)[nH]c1=O)N(CC(C)CC)C(=O)Cn1cc(-c2cc(C)c(C)cc2C)nn1 (configuration not stated)
4.31
